// provenance: PubChem BioAssay

assay: binders of probe aFST on microarray, primary screen, stem cell growth factor project, biochemical, small-molecule microarray, fluorescence 635/667 (AID 1086); conditions: higher = more signal;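 note: score merges 667 nm fluorescence with signal-to-noise of each printed compound spot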
Known composite z-score of a selection of compounds
// no unit string in output, number only

# compound, composite z-score
measured = [
    ("C=CCC(OC(C)=O)[C@@H]1[C@@H](N(Cc2cccc3ccccc23)C(=O)Cc2ccc(OC)cc2)c2cc(OCCCO)ccc2N1C(=O)c1ccc2ccccc2n1 (stereo partly drawn)", 0.153),
    ("C=CCC(OC(C)=O)[C@@H]1[C@@H](N(Cc2cc3ccccc3o2)C(=O)c2ccc(-c3ccccc3)cc2)c2cc(OCCCO)ccc2N1C(=O)c1ccc2ccccc2c1 (stereo partly drawn)", 0.679),
    ("O=C(N1CCCCC1)[C@@]1(CCS(=O)(=O)c2ccccc2)COC(c2ccc(OCCCO)cc2)=N1", 0.937),
    ("CN(C)C(=O)[C@]1(CCS(=O)(=O)c2ccccc2)N=C(c2ccc(OCCCO)cc2)O[C@@H]1c1ccccc1N=[N+]=[N-]", 1.84),
    ("COc1ccccc1CN1C(=O)c2ccccc2[C@](Cc2ccccc2I)(C(=O)NCC(F)(F)F)[C@@H]1c1ccc(CO)cc1", 1.37),
    ("Cc1cc(C)c(C(O)C2C=CC3C(=O)NC(=O)C3N2Nc2ccc(Cl)cc2Cl)c(C)c1 (stereo not drawn)", 1.64),
]

Which composite z-score is listed for "CCOC(=O)C1=C[C@@H](c2ccccc2)N(S(=O)(=O)c2ccc(C)cc2)[C@H]1c1ccccc1Cl" ?
0.945

Which composite z-score is listed for "CN(C)CCCNC(=O)[C@@]1(C)c2ccccc2C(=O)N(Cc2ccccc2)[C@H]1c1ccc(CO)cc1" ?
-0.0584
